test-protocol: Inhibitory concentration against epstein-barr virus (EBV) infected H-1 cells was determined
Type: functional, cell-based
particulars: Homo sapiens
Reported IC50 values follow for various compounds
endpoint-label: IC50 (nM)

[[record]]
compound = "Nc1nc(Cl)c2c(ncn2/C=C2/CC2CO)n1 (stereo unspecified)"
value_qualifier = "="
result = 700

[[record]]
compound = "Nc1nc(O)c2ncn(/C=C3/CC3CO)c2n1 (stereo unspecified) [SYNGUANOL]"
value_qualifier = "="
result = 300

[[record]]
compound = "Nc1ncnc2c1ncn2/C=C1/CC1CO (stereo unspecified)"
value_qualifier = "="
result = 200

[[record]]
compound = "Nc1nc(O)c2ncn(/C=C3\\CC3CO)c2n1 (stereo unspecified)"
value_qualifier = ">"
result = 50000

[[record]]
compound = "Nc1ncnc2c1ncn2/C=C1\\CC1CO (stereo unspecified)"
value_qualifier = "="
result = 3000

[[record]]
compound = "Nc1nc(Cl)c2ncn(/C=C3\\CC3CO)c2n1 (stereo unspecified)"
value_qualifier = ">"
result = 10000

